system: MDA-MB-453; experiment: drug sensitivity score (DSS), single agent (DSS (weighted AUC score)); higher = more sensitive (stronger viability decrease); extreme values may be limits of the assay; settings: BLU9931 0 nM; 72 h
Reported drug sensitivity score values follow for various compounds
Respond with the number and no other words.

Study these solved cases before continuing.
smiles	recorded-value
Cn1cncc1[C@@](N)(c1ccc(Cl)cc1)c1ccc2c(c1)c(-c1cccc(Cl)c1)cc(=O)n2C	8.3
CCC(C)(C)C(=O)O[C@H]1C[C@@H](C)C=C2C=C[C@H](C)[C@H](CC[C@@H]3C[C@@H](O)CC(=O)O3)[C@H]21	0
CN(C)C(=O)c1ccc(S(=O)(=O)c2ccc(NC(=O)[C@@](C)(O)C(F)(F)F)c(Cl)c2)cc1	0.1
CN(C)CCOc1ccc(/C(=C(/CCCl)c2ccccc2)c2ccccc2)cc1	6
Nc1ncnc2c1nc(Cl)n2[C@@H]1O[C@H](CO)[C@@H](O)[C@H]1O	8.1

Form entry - test system: MDA-MB-453; read-out: drug sensitivity score; compound: C=CC[C@@H]1/C=C(\C)C[C@H](C)C[C@H](OC)[C@H]2O[C@@](O)(C(=O)C(=O)N3CCCC[C@H]3C(=O)O[C@H](/C(C)=C/[C@@H]3CC[C@@H](O)[C@H](OC)C3)[C@H](C)[C@@H](O)CC1=O)[C@H](C)C[C@@H]2OC 2.2

Please tell me: drug sensitivity score of O[C@H](C[C@H]1c2c(F)cccc2-c2cncn21)[C@H]1CC[C@H](O)CC1 , system MDA-MB-453? 0
